# TESTED ON: hENT2 (Homo sapiens)
# Sequence (Q14542 1-456): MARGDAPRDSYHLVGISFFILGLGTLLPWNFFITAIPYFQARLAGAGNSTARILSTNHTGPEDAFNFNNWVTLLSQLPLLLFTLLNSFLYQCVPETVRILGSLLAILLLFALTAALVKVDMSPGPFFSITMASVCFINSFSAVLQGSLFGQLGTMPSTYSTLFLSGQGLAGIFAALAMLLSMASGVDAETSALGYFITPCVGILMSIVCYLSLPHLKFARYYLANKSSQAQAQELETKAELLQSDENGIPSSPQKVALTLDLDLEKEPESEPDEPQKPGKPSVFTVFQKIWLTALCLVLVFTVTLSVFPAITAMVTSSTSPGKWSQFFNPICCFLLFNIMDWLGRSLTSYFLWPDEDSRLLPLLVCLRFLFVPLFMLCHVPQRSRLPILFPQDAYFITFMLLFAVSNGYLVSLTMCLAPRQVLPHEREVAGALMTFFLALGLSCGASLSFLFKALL
# PROTOCOL DESCRIPTION: Inhibition of [3H]uridine uptake in PK15/hENT2 cells
# Assay type: cell-based
QUANTITY: IC50 (nM)
Field format: number, assumed nM, no unit text.

Looking for the measured IC50 of O=[N+]([O-])c1ccc(CSc2ncnc3c2ncn3[C@@H]2O[C@H](CO)[C@@H](O)[C@H]2O)cc1 [NBMPR, nitrobenzylmercaptopurine ribonucleoside, reference compound] , can you help?
1350
